Assay: in vitro
Type: cell-based, human
Details: human, HEK293T Viability at 30 µM [%]
Procedure: Cytotoxic effects of test compounds on eukaryotic cells were investigated using a HEK293T cell viability assay. First, the cell density of a HEK293T culture was determined. […] In cells with an active metabolism, the PrestoBlue dye is reduced, causing it to fluorescence. The fluorescence (λex = 560 nm, λem = 590 nm) was measured in an EnVision Multilable Plate Reader (Perkin Elmer, Waltham, MA, USA; integration time 0.1 sec/well).
Label key: true (1) means viability at 48 h, 30 µM under 70%; false (0) means viability at 48 h, 30 µM of 70% or more.

1. CN(CCNC(=O)OC(C)(C)C)c1ccc(-c2c(C#N)c(N)nc3sc(C(=O)Nc4ccccc4Cl)c(N)c23)c(Cl)c1; false (0)
2. Cc1cccc(-c2c(C#N)c(N)nc3sc(C(=O)NC4CC4)c(N)c23)c1; false (0)
3. N#Cc1c(N)nc2sc(C(=O)Nc3ccc(Cl)cc3)c(N)c2c1-c1cccc(Cl)c1; false (0)
4. CN(CCNC(=O)OC(C)(C)C)c1ccc(-c2c(C#N)c(N)nc3sc(C(=O)Nc4ccc(F)cc4)c(N)c23)c(Cl)c1; true (1)
5. CN(C)CCN(C)c1ccc(-c2c(C#N)c(N)nc3sc(C(=O)Nc4ccc(F)cc4)c(N)c23)c(Cl)c1; true (1)
6. Cc1cccc(-c2c(C#N)c(N)nc3sc(C(=O)Nc4ccc(F)cc4)c(N)c23)c1; true (1)
7. N#Cc1c(N)nc2sc(C(=O)Nc3cccc(Cl)c3)c(N)c2c1-c1ccc(N2CCCC2)cc1Cl; false (0)
8. Cc1nc2sc(C(=O)Nc3ccc(Cl)cc3)c(N)c2c(-c2ccccc2)c1C(=O)O [Compound 17j]; false (0)
9. Cc1cccc(-c2c(C#N)c(N)nc3sc(C(=O)Nc4ccccc4Cl)c(N)c23)c1; false (0)
10. N#Cc1c(N)nc2sc(C(=O)Nc3ccccc3Cl)c(N)c2c1-c1ccc(N2CCCC2)cc1Cl; false (0)

----------
system: erythrocytic forms of P. falciparum (strain 3D7); test: Viability screening of antiplasmodial activity (SYBR-gold DNA quantification, 96 h); assay type: cell-based, Plasmodium falciparum; details: strain 3D7, erythrocytic forms
Parameter: IC50

1. N#Cc1c(N)nc2sc(C(=O)Nc3ccc(Cl)cc3)c(N)c2c1-c1ccccc1Cl; 199 nM

----------
A collection of compounds and their measured remaining activity at 10 µM
target: rPfGSK-3 (Plasmodium falciparum); test: KinaseGlo Plus assay for inhibition of PfGSK-3; assay type: biochemical; conditions: 10 µM; remaining activity, calculated on DMSO controls; Table 3; read-out: rPfGSK-3 Activity at 10 µM [%]
Sequence (O77344 entry or part of it): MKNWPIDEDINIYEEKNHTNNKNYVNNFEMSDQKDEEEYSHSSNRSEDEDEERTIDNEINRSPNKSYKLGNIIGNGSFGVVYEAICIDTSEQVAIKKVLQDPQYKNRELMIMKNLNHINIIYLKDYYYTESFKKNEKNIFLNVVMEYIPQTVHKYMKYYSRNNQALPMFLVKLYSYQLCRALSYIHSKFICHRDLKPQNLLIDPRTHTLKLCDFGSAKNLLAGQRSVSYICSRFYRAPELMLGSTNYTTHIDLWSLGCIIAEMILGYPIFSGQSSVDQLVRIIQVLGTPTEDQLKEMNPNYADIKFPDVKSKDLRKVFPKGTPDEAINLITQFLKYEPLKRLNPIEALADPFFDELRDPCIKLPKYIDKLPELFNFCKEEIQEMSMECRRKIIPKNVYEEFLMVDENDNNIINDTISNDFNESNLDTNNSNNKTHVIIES
Parameter: remaining activity at 10 µM

1) N#Cc1c(N)nc2sc(C(=O)Nc3ccc(F)cc3)c(N)c2c1-c1cccc(Cl)c1; 69.7%
2) N#Cc1c(N)nc2sc(C(=O)Nc3ccc(F)cc3)c(N)c2c1-c1cccc(F)c1; 70.9%
3) CC(C)(C)OC(=O)N1CCN(c2ccc(-c3c4c(nc5sc(C(=O)Nc6ccc(Cl)cc6)c(N)c35)CCCC4)c(Cl)c2)CC1 [Compound 17k]; 106%
4) N#Cc1c(N)nc2sc(C(=O)Nc3ccc(Cl)cc3)c(N)c2c1-c1ccc(N2CCCC2)cc1Cl; 109%

Source listed as paper PMC7397174.
